# experimental_details: activators of Pax4 gene expression, primary screen, RT-PCR, mouse alpha TC1 cells, single point (AID 1053180);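 note: Pax4 Ct normalized to GAPDH with activation seen as lower delta delta Ct; plate controls were plate neutral control wells for no effect and Pax4 plasmid positive control for full effect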
# condition_summary: Pax4 mRNA qPCR, 6 days, at 10 µM, active compounds read high, 100% = Pax4 plasmid added at qPCR
The campaign covered roughly 9,600 compounds. About 20 (0.2%) were called active. This is one part of a sample in which actives are shown more often than they occur.
Reported activation by item:
property_name: activation (%)

• O=C(C[C@H]1CC[C@@H]2[C@H](COC[C@@H](O)CN2S(=O)(=O)c2cccc(Cl)c2)O1)N1CCOCC1 = 0
• C[C@H](CO)N1C[C@H](C)[C@H](CN(C)Cc2ccc3c(c2)OCO3)Oc2ccc(NS(=O)(=O)c3cn(C)cn3)cc2CC1=O = 0.004
• COc1ccc2c3c([nH]c2c1)[C@H](CO)N(Cc1ccccc1F)CC31CN(CC2CC2)C1 = 0.011
• CN(C)C(=O)c1ccc(-c2ccc([C@@H]3[C@@H](CO)N4C(=O)CN(C(=O)CC5CC5)C[C@H]34)cc2)cc1 = 0.005
• O=C(c1cccc(F)c1)N1CC(=O)N2[C@@H](CO)[C@H](c3ccc(C4=CCCCC4)cc3)[C@@H]2C1 = 0.025
• CN1C(=O)c2cc(NC(=O)c3cscn3)ccc2OC[C@H]2O[C@H](CC(=O)NCc3ccc(Cl)c(Cl)c3)CC[C@@H]21 = 0.0025
• COCC(=O)N1CCC2(CC1)CN(Cc1ccccc1Cl)[C@H](CO)c1[nH]c3cc(OC)ccc3c12 = 0.0015
• CO[C@H]1CN(C)C(=O)c2cc(NC(=O)C3CCOCC3)ccc2OC[C@H](C)NC[C@@H]1C = 0.0005
• Cc1noc(C)c1S(=O)(=O)Nc1ccc2c(c1)C(=O)N([C@H](C)CO)C[C@H](C)[C@H](CN(C)Cc1ccc(C(=O)O)cc1)OCCCC[C@H](C)O2 = -0.0005
• O=C(Nc1ccc(F)cc1)N1[C@@H]2CNc3ccccc3[C@@H]2[C@@H]1CO = 0.0065
• Cn1cnc(S(=O)(=O)N[C@H]2CC[C@H](CC(=O)NCC3CCCCC3)O[C@@H]2CO)c1 = -0.0005
• C/C=C/c1ccc([C@@H]2[C@@H](CO)N3C(=O)CN(Cc4ccc(F)cc4)C[C@@H]23)cc1 = 0.0005
• CN(C[C@@H]1[C@@H](c2ccccc2)[C@H](CO)N1CC1CC1)C(=O)c1ccc(F)cc1 = -0.002
• CC(C)[C@@H]1CCc2cnnn2COC[C@H](Cc2ccccc2)NC1=O = -0.0175
• O=C(O)[C@H]1[C@H](CO)[C@H]2Cn3c(ccc(-c4cccc(F)c4)c3=O)[C@H]2N1C(=O)c1ccccn1 = 0.0005
• O=C(C[C@H]1CC[C@H]2[C@@H](COC[C@@H](O)CN2S(=O)(=O)c2ccc(F)cc2)O1)NCCN1CCCCC1 = 0.003

###

# experimental_details: activators of Pax4 gene expression, primary screen, RT-PCR, mouse alpha TC1 cells, single point (AID 1053180);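 note: Pax4 Ct normalized to GAPDH with activation seen as lower delta delta Ct; plate controls were plate neutral control wells for no effect and Pax4 plasmid positive control for full effect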
# condition_summary: Pax4 mRNA qPCR, 6 days, at 10 µM, active compounds read high, 100% = Pax4 plasmid added at qPCR
About 20 (0.2%) of roughly 9,600 compounds were called active. Only a selection was taken, and actives are over-represented in it overall.
Reported activation by item:
property_name: activation (%)

* CCCC(=O)N1CC2(C1)CN(C(=O)c1ccc(F)cc1)[C@H](CO)c1[nH]c3cc(OC)ccc3c12 | 0.003
* C[C@H](NC(=O)C[C@@H]1C=C[C@H](NC(=O)c2cccnc2)[C@@H](CO)O1)c1ccccc1 | 0.001
* CC(C)NC(=O)Nc1ccc2c(c1)C(=O)N([C@H](C)CO)C[C@H](C)[C@@H](CN(C)C(=O)C1CCCCC1)OCCCC[C@H](C)O2 | -0.0015
* COc1cccc(-c2ccc3c(c2)[C@@H]2[C@@H](CCN2S(=O)(=O)C2=NC(C)C=N2)[C@H](CO)N3C)c1 (some centres undefined) | 0.001
* O=C(c1ccccn1)N1CC[C@@H]2[C@@H](CO)Nc3ccc(C#Cc4cccnc4)cc3[C@@H]21 | 0.001
* CO[C@@H](CN(C)Cc1cc(F)ccc1F)[C@H](C)CN(C(=O)Nc1ccc(C(F)(F)F)cc1)[C@H](C)CO | 0.0205
* COCC(=O)N1C[C@@H](C)[C@@H](OC)CN(C)C(=O)c2ccc(NC(=O)Nc3cccc(F)c3)cc2OC[C@H]1C | -0.0005
* C[C@H]1CN([C@@H](C)CO)C(=O)c2cc(NS(=O)(=O)c3ccc(F)cc3)ccc2O[C@H]1CN(C)C(=O)Nc1ccccc1 | 0.002
* N#C[C@@H]1[C@@H](c2ccccc2-c2ccccc2F)[C@H](CO)N1C(=O)Cc1ccccc1 | 0.001
